# System: Wolbachia pipientis
# Assay remarks: Anti-Wolbachia Cell-Based Screen
# Type: functional
# Design: scale not given: in the data most compounds retested in dose-response had high values
# Condition context: 5 µM
About 13,000 (27%) of roughly 48,000 compounds showed an effect of 50% or more. Some of the results follow.
So I've got a bunch of compounds here, and I need their Percent Effect values.
One number for each entry, in %.

# Compound, Result unit, Percent Effect
records = [
    ("c1csc(-c2nc(CN3CCCC3Cn3cncn3)co2)c1 (centres undefined)", "%", 2.244),
    ("c1coc(-c2nnc(CN3CCCC3Cn3cncn3)o2)c1 (centres undefined)", "%", 82.67),
    ("CCOCCCC(=O)NS(=O)(=O)c1ccc(C)s1", "%", -11.1),
    ("O=C(CN1C(=O)CCC1=O)NCCc1nc(C2CC2)cc(C(F)(F)F)n1", "%", 102.8),
    ("CCOCC(=O)NCCc1ccc(I)s1", "%", -15.02),
]

For each entry beneath this line, provide reported Percent Effect.
1. CN1C(=O)CC(C(=O)O)C12CCN(Cc1cc(F)ccc1Cl)CC2 (centres undefined)
2. CCOc1ccccc1-c1noc(CN(C)Cc2cnn(C)c2)n1
3. CCOCCCNC(=O)CCSCc1csc(C)n1

[-13.17, -16.57, 4.852]
